SUBJECT OF TEST: PKBα (Homo sapiens, UniProt P31749)
Construct: the full length PKBα and a kinase domain of PKBα with pleckstrin domain (amino acids 1-117) deleted
Sequence (P31749 118-480 limits assumed): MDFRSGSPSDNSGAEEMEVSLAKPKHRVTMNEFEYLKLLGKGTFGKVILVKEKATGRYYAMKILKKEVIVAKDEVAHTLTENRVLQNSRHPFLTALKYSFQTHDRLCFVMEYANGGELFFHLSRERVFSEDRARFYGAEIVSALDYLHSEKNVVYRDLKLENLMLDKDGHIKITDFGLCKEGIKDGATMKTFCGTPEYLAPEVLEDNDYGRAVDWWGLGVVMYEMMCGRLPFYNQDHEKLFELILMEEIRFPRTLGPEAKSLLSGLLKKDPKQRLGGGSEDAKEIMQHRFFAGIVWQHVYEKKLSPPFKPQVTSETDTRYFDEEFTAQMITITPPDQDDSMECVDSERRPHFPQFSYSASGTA
ASSAY NAME: PKB kinase assay (P33-labeled ATP, synthetic peptide substrate, filter plate capture)
RECORDED CONDITIONS: with respect to PKBα
pIC50: −log10 of the molar value. Counter-ions that a name gives are not always drawn.
OBSERVED PROPERTY: pIC50

Prompt: Need pIC50 of O[C@H]1CCCC[C@H]1CNc1nnc(-c2ccc3cnccc3c2)s1 , thanks.
Completion: 6.00 to 7.30

Prompt: Need pIC50 of N[C@H](CCc1nnc(-c2ccc3cnc(F)cc3c2)s1)Cc1ccc(C(F)(F)F)nc1 , thanks.
Completion: > 7.30

Prompt: Need pIC50 of Cc1cccc(C[C@H](N)CNc2nnc(-c3cc4c(Cl)cncc4s3)s2)c1 , thanks.
Completion: 6.00 to 7.30

Prompt: Need pIC50 of N[C@H](COc1nnc(-c2ccc3cnccc3c2)s1)Cc1ccc(C(F)(F)F)cc1 , thanks.
Completion: 6.00 to 7.30

Prompt: Need pIC50 of N[C@H](CCc1nnc(-c2ccc3c(c2)CC(=O)N3)s1)Cc1ccc(C(F)(F)F)nc1 [Example 47, trifluoroacetate] , thanks.
Completion: 6.00 to 7.30

Prompt: Need pIC50 of c1ccc([C@@H]2CCN[C@@H]2CNc2nnc(-c3ccc4cnccc4c3)s2)cc1 (racemic) , thanks.
Completion: 6.00 to 7.30

Prompt: Need pIC50 of N[C@H](CCc1nnc(-c2ccc3[nH]c(=O)oc3c2)s1)Cc1ccc(C(F)(F)F)cc1 , thanks.
Completion: > 7.30

Switching to the query record.
Prompt: Need pIC50 of C[C@@H](c1ccc(C(F)(F)F)cc1)[C@H](N)CNc1nnc(-c2ccc3c(c2)CC(=O)N3)s1 , thanks.
Completion: > 7.30

----------
SUBJECT OF TEST: PKBα (Homo sapiens)
Construct: the full length PKBα and a kinase domain of PKBα with pleckstrin domain (amino acids 1-117) deleted
ASSAY NAME: PKB kinase assay (P33-labeled ATP, synthetic peptide substrate, filter plate capture)
RECORDED CONDITIONS: with respect to PKBα
# IC50 listing for each entry below

Prompt: Need IC50 of CC1(C)C2CCC1(C)C(Nc1nnc(-c3ccc4cnccc4c3)s1)C2 (stereo not shown) [Example 20] , thanks.
Completion: 1000 to 10000 nM

Prompt: Need IC50 of N[C@H](CNc1nnc(-c2ccc3[nH]c(=O)oc3c2)s1)Cc1ccc(Cl)cc1 [Example 50] , thanks.
Completion: < 50 nM

Prompt: Need IC50 of NC(CNc1nnc(-c2cccc3cnncc23)s1)Cc1ccc(C(F)(F)F)cc1 (stereo in doubt) [Example 28] , thanks.
Completion: 1000 to 10000 nM

Prompt: Need IC50 of N[C@H](CNc1nnc(-c2ccc3cnsc3c2)s1)Cc1ccc(C(F)(F)F)cc1 [Example 42] , thanks.
Completion: < 50 nM

----------
# IC50 listing for each entry below
SUBJECT OF TEST: PKBα (Homo sapiens, UniProt P31749)
Construct: the full length PKBα and a kinase domain of PKBα with pleckstrin domain (amino acids 1-117) deleted
ASSAY NAME: PKB kinase assay (P33-labeled ATP, synthetic peptide substrate, filter plate capture)
RECORDED CONDITIONS: with respect to PKBα
Structures can show the parent of a compound that is named as a salt.

Prompt: Need IC50 of CC(F)(F)c1ccc(C[C@H](N)CNc2nnc(-c3ccc4c(c3)CC(=O)N4)s2)cc1 [Example 4] , thanks.
Completion: < 50 nM

Others:
Prompt: Need IC50 of N[C@H](CNc1nnc(-c2ccc3c(c2)CC(=O)N3)s1)[C@@H](O)c1ccc(C(F)(F)F)cc1 [Example 51, trifluoroacetate] , thanks.
Completion: < 50 nM

Prompt: Need IC50 of N[C@H](CCc1nnc(-c2ccc3[nH]ncc3c2)s1)Cc1ccc(C(F)(F)F)nc1 [Example 46] , thanks.
Completion: < 50 nM
